# Tested on: SF-268 CNS
# measurement protocol: NCI-60 one-dose screen, 48 h (100 = growth as untreated, 0 = no growth, -100 = all killed)
# measurement parameters: 10 µM unless noted
Compounds without any hit were thinned out: in the full panel of roughly 83,000, 20% have a hit.
Note to self: class = bucket of growth, per bottom bin (below 50%), middle bin (50% to below 90%), top bin (90% or more)

Sample answers from the record:
# smi, target desc, class assignment
rows = [
    ("Cc1ccc(NC(=O)/C=C/c2ccc(OCCCOc3ccc4c(C)cc(=O)oc4c3)cc2)cc1", "SF-268 CNS", "bottom bin"),
    ("O=C(CCCCCCN1CC(=O)N2[C@@H](c3cccs3)c3[nH]c4ccccc4c3C[C@H]2C1=O)NO", "SF-268 CNS", "top bin"),
    ("O=C(CSc1nnc(-c2cccs2)n1-c1ccccc1)Nc1ccccc1", "SF-268 CNS", "middle bin"),
    ("CCN(CC)c1ccc(/C=N/NC(=O)c2ccc(S(N)(=O)=O)cc2)cc1", "SF-268 CNS", "bottom bin"),
    ("N#Cc1nc(-c2ccc(Cl)cc2)oc1N1CCC(S(=O)(=O)N2CCOCC2)CC1", "SF-268 CNS", "top bin"),
    ("CCOC(=O)c1cccc(NC2=C(Cl)C(=O)C(C)=C(C)C2=O)c1", "SF-268 CNS", "top bin"),
    ("N#C/C(=C\\c1ccc(-c2ccc(Cl)cc2)o1)C(=O)Nc1ncc(Cc2ccc(Br)cc2)s1", "SF-268 CNS", "bottom bin"),
]

input: For this compound, which bin applies? Clc1cccc(/C=N/Nc2nc(N/N=C/c3cccc(Cl)c3)nc(N3CCOCC3)n2)c1
output: middle bin
